Give EC50 for every item shown.
Target: T1, Human LILRB2 on stably transduced HEK293T cells (human, UniProt Q8N423 22-597)
T1 construct: Lentiviral transduction (G&P Biosciences LTV2992); also called HEK293T-LILRB2; LILRB2-expressing HEK293T cells
T1 sequence (Q8N423 other isoform, or with tags, fused parts or gaps limits assumed): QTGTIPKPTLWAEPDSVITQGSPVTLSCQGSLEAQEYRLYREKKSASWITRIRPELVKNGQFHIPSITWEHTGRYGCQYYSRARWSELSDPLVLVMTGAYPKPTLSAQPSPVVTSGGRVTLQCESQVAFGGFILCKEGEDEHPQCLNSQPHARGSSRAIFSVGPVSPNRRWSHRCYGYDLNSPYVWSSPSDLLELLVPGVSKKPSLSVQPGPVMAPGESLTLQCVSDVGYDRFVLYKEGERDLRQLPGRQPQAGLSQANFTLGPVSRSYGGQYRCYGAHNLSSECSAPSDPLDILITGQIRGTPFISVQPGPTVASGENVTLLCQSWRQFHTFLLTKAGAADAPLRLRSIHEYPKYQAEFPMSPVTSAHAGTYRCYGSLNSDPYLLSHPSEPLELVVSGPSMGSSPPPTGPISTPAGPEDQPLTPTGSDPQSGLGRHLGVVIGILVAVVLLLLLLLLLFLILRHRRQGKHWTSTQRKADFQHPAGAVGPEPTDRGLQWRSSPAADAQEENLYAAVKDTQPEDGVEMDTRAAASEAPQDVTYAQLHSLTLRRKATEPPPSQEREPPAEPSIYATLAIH
Experiment: flow cytometry, HEK293T cells stably expressing human LILRB2
Write the value in ng/mL as a bare number.

So for B2H4-35 (antibody, V domains shown, Humanized variant, human IgG4 / kappa) VH: QVQLVESGGRVVQPGTPLRLSCAASGFSLSTYAMSWVRQAPGKGLEWVAWIYNDGSTYYAAWAKGRFTISRDTSKNTLYLQTNSLKPDDTAVYYCAREGDYIGYFNIWGQGTLVTVSS VL: DVVMTQTPSSVSAALGGTVTIKCQASQSIGSNLAWYQLKPGQRPKLLIYAAATLASGGSSRFKGSGSGTDFTLTISSLEPADAATYYCQSYVSGSSDVAFGGGTEVVVK , the logged EC50 turned out to be 0.21

So for B2H4-51 (antibody, V domains shown, Humanized variant, human IgG4 / kappa) VH: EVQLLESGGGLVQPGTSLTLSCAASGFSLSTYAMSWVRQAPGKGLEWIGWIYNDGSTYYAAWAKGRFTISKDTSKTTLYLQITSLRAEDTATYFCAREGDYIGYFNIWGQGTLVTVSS VL: DIQMTQSPSSLSASVGDRVTITCQASQSIGSNLAWYQLKPGQRPKLLIYAAATLASGVPSRFKGSGSGTDFTLTISSLQSEDAATYYCQSYVSGSSDVAFGGGTEVVVK , the logged EC50 turned out to be 0.37

So for B2H4-54 (antibody, V domains shown, Humanized variant, human IgG4 / kappa) VH: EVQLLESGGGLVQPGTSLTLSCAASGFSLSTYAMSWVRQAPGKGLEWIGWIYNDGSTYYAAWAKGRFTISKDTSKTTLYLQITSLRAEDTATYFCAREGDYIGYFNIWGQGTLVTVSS VL: DIQMTQSPSSVSASVGDRVTITCQASQSIGSNLAWYQQKPGKAPKLLIYAAATLASGVPLRFSGSGSGTDFTLTISNLQPEDSATYYCQSYVSGSSDVAFGGGTKVEIK , the logged EC50 turned out to be 0.17

So for B2H4-13 (antibody, V domains shown, Humanized variant, human IgG4 / kappa) VH: QVQLEESGGRVVQPGRSLRLSCAASGFSLSTYAMSWVRQAPGKGLEWIGWIYNDGSTYYAAWAKGRFTISKDTSKTTVFLQMNSLKPDDTATYFCAREGDYIGYFNIWGQGTLVTVSS VL: DIEMTQSPSSVSASVGDRVTLTCQASQSIGSNLAWYQQKPGQAPKLLIYAAATLASGVPSRFKGSGSGTDFTLTISSLQPEDFATYYCQSYVSGSSDVAFGGGTEVVVK , the logged EC50 turned out to be 0.31

So for B2H4-44 (antibody, V domains shown, Humanized variant, human IgG4 / kappa) VH: EVQLLESGGRLVQPGTSLRLSCAVSGFSLSTYAMSWVRQAPGKGLEWIGWIYNDGSTYYAAWAKGRFTISKDTSKTTLYLQMNSLTVEDTATYFCAREGDYIGYFNIWGQGTLVTVSS VL: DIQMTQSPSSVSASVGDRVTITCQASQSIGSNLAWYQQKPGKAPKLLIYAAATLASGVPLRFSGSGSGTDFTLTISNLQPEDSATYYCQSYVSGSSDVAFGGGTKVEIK , the logged EC50 turned out to be 0.31

So for B2H4-24 (antibody, V domains shown, Humanized variant, human IgG4 / kappa) VH: EVQLVESGGDLATPGGSLRLSCAVSGFSLSTYAMSWVRQAPGKGLEWVGWIYNDGSTYYAAWAKGRFTISKDTSKTTVYLQMTSLRAEDTALYFCAREGDYIGYFNIWGQGTLVTVSS VL: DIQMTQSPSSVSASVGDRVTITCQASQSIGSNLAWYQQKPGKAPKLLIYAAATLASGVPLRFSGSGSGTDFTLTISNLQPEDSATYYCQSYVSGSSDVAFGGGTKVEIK , the logged EC50 turned out to be 0.35

So for B2H4-45 (antibody, V domains shown, Humanized variant, human IgG4 / kappa) VH: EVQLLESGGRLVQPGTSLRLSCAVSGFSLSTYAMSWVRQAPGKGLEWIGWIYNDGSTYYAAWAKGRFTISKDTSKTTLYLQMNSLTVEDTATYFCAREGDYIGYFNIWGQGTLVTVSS VL: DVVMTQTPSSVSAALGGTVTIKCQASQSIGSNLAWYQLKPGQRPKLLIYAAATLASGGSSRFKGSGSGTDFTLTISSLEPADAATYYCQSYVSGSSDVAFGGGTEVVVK , the logged EC50 turned out to be 0.31

So for B2H4-41 (antibody, V domains shown, Humanized variant, human IgG4 / kappa) VH: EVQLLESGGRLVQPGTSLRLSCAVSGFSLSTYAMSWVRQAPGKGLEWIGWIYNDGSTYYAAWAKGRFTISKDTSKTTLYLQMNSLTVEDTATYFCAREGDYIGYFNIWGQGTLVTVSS VL: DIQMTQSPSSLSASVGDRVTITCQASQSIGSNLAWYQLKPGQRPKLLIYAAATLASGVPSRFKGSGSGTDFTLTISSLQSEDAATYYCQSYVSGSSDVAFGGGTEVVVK , the logged EC50 turned out to be 0.28

So for B2H4-25 (antibody, V domains shown, Humanized variant, human IgG4 / kappa) VH: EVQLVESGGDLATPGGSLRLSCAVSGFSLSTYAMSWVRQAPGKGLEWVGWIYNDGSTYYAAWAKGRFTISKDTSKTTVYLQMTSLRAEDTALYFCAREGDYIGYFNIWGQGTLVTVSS VL: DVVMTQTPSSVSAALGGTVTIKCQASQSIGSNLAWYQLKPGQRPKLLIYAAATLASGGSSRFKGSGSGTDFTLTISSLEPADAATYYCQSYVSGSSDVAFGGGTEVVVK , the logged EC50 turned out to be 0.35

So for B2H4-55 (antibody, V domains shown, Humanized variant, human IgG4 / kappa) VH: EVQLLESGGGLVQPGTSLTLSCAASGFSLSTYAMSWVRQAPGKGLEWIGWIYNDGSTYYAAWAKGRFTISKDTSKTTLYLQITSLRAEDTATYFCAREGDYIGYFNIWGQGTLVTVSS VL: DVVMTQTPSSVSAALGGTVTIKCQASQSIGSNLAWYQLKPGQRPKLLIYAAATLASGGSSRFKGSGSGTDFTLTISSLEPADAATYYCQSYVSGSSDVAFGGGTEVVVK , the logged EC50 turned out to be 0.33

So for B2H4-11 (antibody, V domains shown, Humanized variant, human IgG4 / kappa) VH: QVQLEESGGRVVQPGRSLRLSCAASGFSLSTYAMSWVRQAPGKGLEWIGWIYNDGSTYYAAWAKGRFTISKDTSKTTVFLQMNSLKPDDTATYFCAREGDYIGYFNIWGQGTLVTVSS VL: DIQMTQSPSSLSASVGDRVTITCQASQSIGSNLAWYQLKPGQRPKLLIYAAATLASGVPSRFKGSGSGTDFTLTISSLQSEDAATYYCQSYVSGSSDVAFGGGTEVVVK , the logged EC50 turned out to be 0.32
